- Test details: Cytotoxicity assay in LLCMK2 epithelial cells (MTT, 72 h)
- Assay type: cell-based
- Experimental context: Macaca mulatta, LLCMK2 kidney epithelial cells, pH 7.2, LLCMK2, 50% inhibition of growth
Labelling: CC50 at 72 h reported below 200 µM becomes YES; at or above becomes NO.

Does the reported CC50 at 72 h of the following molecule sit strictly below 200 µM? CSC(N)=NN=Cc1c(C(F)(F)F)nn(-c2ccccc2)c1-c1ccc([N+](=O)[O-])cc1 [3a] YES

Does the reported CC50 at 72 h of the following molecule sit strictly below 200 µM? Nc1nnc(-c2c(C(F)(F)F)nn(-c3ccccc3)c2-c2ccccc2)s1 [4e] NO

Does the reported CC50 at 72 h of the following molecule sit strictly below 200 µM? NC(=S)NN=Cc1c(C(F)(F)F)nn(-c2ccccc2)c1-c1ccccc1 [2e] NO

FYI, the data here is from paper PMC7576996.
